- System name: Acetylcholinesterase (Homo sapiens, UniProt P22303)
- Sequence (P22303 whole entry): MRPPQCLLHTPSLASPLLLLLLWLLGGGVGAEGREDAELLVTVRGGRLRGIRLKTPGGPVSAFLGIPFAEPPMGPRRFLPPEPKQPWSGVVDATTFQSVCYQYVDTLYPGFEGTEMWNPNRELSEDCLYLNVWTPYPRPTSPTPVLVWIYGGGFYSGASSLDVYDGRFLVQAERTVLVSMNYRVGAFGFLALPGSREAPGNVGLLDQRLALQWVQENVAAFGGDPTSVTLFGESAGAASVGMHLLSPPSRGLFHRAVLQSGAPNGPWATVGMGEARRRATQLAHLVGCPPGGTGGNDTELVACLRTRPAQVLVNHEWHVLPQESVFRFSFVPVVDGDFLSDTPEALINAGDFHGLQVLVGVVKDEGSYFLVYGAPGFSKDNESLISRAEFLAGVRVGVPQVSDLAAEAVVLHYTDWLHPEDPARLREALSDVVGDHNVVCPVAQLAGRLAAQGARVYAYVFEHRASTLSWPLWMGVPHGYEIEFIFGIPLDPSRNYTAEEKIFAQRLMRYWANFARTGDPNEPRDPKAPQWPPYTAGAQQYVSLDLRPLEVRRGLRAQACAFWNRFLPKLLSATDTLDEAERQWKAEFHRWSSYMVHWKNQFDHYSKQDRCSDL
- Assay comment: Displacement of propidium iodide from AChE peripheral anionic site at 3 uM
Reported property: Activity

Would you mind telling me what Activity value was observed for CCCCCCOC(=O)[C@H](CCC(=O)NCCC1CCN(Cc2ccccc2)CC1)NC(=O)c1cc(Br)cs1 ?
< 0.5%

Follow-up entry: CCCCCCOC(=O)[C@H](CCC(=O)NCCC1CCN(Cc2ccccc2)CC1)NC(=O)c1cc2ccccc2s1
39.7%

Follow-up entry: CCCCCCOC(=O)[C@H](CCC(=O)NCCC1CCN(Cc2ccccc2)CC1)NC(=O)c1cc2cccnc2s1
27.2%

Follow-up entry: CCCCCCOC(=O)[C@H](CCC(=O)NCCC1CCN(Cc2ccccc2)CC1)NC(=O)c1cccs1
15%

Follow-up entry: C=CC[N+](C)(C)c1ccc(CCC(=O)CCc2ccc([N+](C)(C)CC=C)cc2)cc1
16%

Follow-up entry: CCCCCCOC(=O)[C@H](CCC(=O)NCCC1CCN(Cc2ccccc2)CC1)NC(=O)c1ccccc1
37.3%

Follow-up entry: CCCCCCOC(=O)[C@H](CCC(=O)NCCC1CCN(Cc2ccccc2)CC1)NC(=O)OC(C)(C)C
42%

Follow-up entry: CCCCCCOC(=O)[C@H](CCC(=O)NCCC1CCN(Cc2ccccc2)CC1)NC(=O)OCc1ccccc1
29.3%

Follow-up entry: CCCCCCOC(=O)[C@H](CCC(=O)NCCC1CCN(Cc2ccccc2)CC1)NC(=O)Cc1cc2ccc(Cl)cc2s1
23.4%

Follow-up entry: CCCCCCOC(=O)[C@H](CCC(=O)NCCC1CCN(Cc2ccccc2)CC1)NC(=O)c1cc2ccsc2s1
23.3%

====

- System: SH-SY5Y
- Assay comment: Neuroprotective activity against human SH-SY5Y cells assessed as protection reduction in H2O2-induced LDH release at 30 uM after 24 hrs
- Type: functional
- Design: scale not given: the % may be the effect or the level left
For each entry below, report its Activity value.
Answer in %, number only, no unit symbol.

Identify the measured Activity of CCCCCCOC(=O)[C@H](CCC(=O)NCCC1CCN(Cc2ccccc2)CC1)NC(=O)c1cc2ccccc2s1 for SH-SY5Y.
17.9

Follow-up entry: Cc1c(C)c2c(c(C)c1O)CCC(C)(C(=O)O)O2 (stereo unspecified)
57.7

Follow-up entry: CCCCCCOC(=O)[C@H](CCC(=O)NCCC1CCN(Cc2ccccc2)CC1)NC(=O)OCc1ccccc1
5.3

Follow-up entry: CCCCCCOC(=O)[C@H](CCC(=O)NCCC1CCN(Cc2ccccc2)CC1)NC(=O)c1ccccc1
67

Follow-up entry: CCCCCCOC(=O)[C@H](CCC(=O)NCCC1CCN(Cc2ccccc2)CC1)NC(=O)c1cc2cccnc2s1
48.8

Follow-up entry: CCCCCCOC(=O)[C@H](CCC(=O)NCCC1CCN(Cc2ccccc2)CC1)NC(=O)c1cc2ccsc2s1
20.3

====

- System name: Acetylcholinesterase (Homo sapiens, UniProt P22303)
- Assay comment: Displacement of propidium iodide from AChE peripheral anionic site at 0.3 uM
Label rule not met if Activity falls below 30%; label rule met in every other case.

In plain terms: is recorded Activity at least 30% for CCCCCCOC(=O)[C@H](CCC(=O)NCCC1CCN(Cc2ccccc2)CC1)NC(=O)OC(C)(C)C ?
rule met

Follow-up entry: CCCCCCOC(=O)[C@H](CCC(=O)NCCC1CCN(Cc2ccccc2)CC1)NC(=O)c1cccs1
rule not met

Follow-up entry: CCCCCCOC(=O)[C@H](CCC(=O)NCCC1CCN(Cc2ccccc2)CC1)NC(=O)c1cc2ccccc2s1
rule met

Follow-up entry: CCCCCCOC(=O)[C@H](CCC(=O)NCCC1CCN(Cc2ccccc2)CC1)NC(=O)Cc1cc2ccc(Cl)cc2s1
rule not met

Follow-up entry: CCCCCCOC(=O)[C@H](CCC(=O)NCCC1CCN(Cc2ccccc2)CC1)NC(=O)c1cc2ccsc2s1
rule met

Follow-up entry: CCCCCCOC(=O)[C@H](CCC(=O)NCCC1CCN(Cc2ccccc2)CC1)NC(=O)c1cc2cccnc2s1
rule met

Follow-up entry: CCCCCCOC(=O)[C@H](CCC(=O)NCCC1CCN(Cc2ccccc2)CC1)NC(=O)c1ccccc1
rule not met

Follow-up entry: CCCCCCOC(=O)[C@H](CCC(=O)NCCC1CCN(Cc2ccccc2)CC1)NC(=O)OCc1ccccc1
rule not met

Follow-up entry: CCCCCCOC(=O)[C@H](CCC(=O)NCCC1CCN(Cc2ccccc2)CC1)NC(=O)c1cc(Br)cs1
rule not met

====

For each entry below, report its Papp value.
- Assay comment: in vitro
- Settings: PAMPA
- Description: Permeability across PAMPA membrane
Answer in ×10⁻⁶ cm/s, number only, no unit symbol.

Would you mind telling me what Papp value was observed for CCCCCCOC(=O)[C@H](CCC(=O)NCCC1CCN(Cc2ccccc2)CC1)NC(=O)OC(C)(C)C ?
11.6

Follow-up entry: CCCCCCOC(=O)[C@H](CCC(=O)NCCC1CCN(Cc2ccccc2)CC1)NC(=O)c1cccs1
20.9

Follow-up entry: CCCCCCOC(=O)[C@H](CCC(=O)NCCC1CCN(Cc2ccccc2)CC1)NC(=O)c1ccccc1
18.7

Follow-up entry: CCCCCCOC(=O)[C@H](CCC(=O)NCCC1CCN(Cc2ccccc2)CC1)NC(=O)c1cc2ccccc2s1
25.6

Follow-up entry: CCCCCCOC(=O)[C@H](CCC(=O)NCCC1CCN(Cc2ccccc2)CC1)NC(=O)c1cc2ccsc2s1
28.5

Follow-up entry: CCCCCCOC(=O)[C@H](CCC(=O)NCCC1CCN(Cc2ccccc2)CC1)NC(=O)c1cc2cccnc2s1
18.8

====

For each entry below, report its Activity value.
- Tested on: SH-SY5Y
- Assay comment: Neuroprotective activity against human SH-SY5Y cells assessed as protection reduction in H2O2-induced LDH release at 1 uM after 24 hrs
- Assay type: functional
- Set-up: scale not given: the % may be the effect or the level left
Answer in %, number only, no unit symbol.

Would you mind telling me what Activity value was observed for CCCCCCOC(=O)[C@H](CCC(=O)NCCC1CCN(Cc2ccccc2)CC1)NC(=O)c1cc2cccnc2s1 ?
0

Follow-up entry: Cc1c(C)c2c(c(C)c1O)CCC(C)(C(=O)O)O2 (stereo not given)
0

Follow-up entry: CCCCCCOC(=O)[C@H](CCC(=O)NCCC1CCN(Cc2ccccc2)CC1)NC(=O)c1cccs1
55.1

Follow-up entry: CCCCCCOC(=O)[C@H](CCC(=O)NCCC1CCN(Cc2ccccc2)CC1)NC(=O)c1cc(Br)cs1
63.3

Follow-up entry: CCCCCCOC(=O)[C@H](CCC(=O)NCCC1CCN(Cc2ccccc2)CC1)NC(=O)c1cc2ccccc2s1
28.7

Follow-up entry: CCCCCCOC(=O)[C@H](CCC(=O)NCCC1CCN(Cc2ccccc2)CC1)NC(=O)Cc1cc2ccc(Cl)cc2s1
26.2

Follow-up entry: CCCCCCOC(=O)[C@H](CCC(=O)NCCC1CCN(Cc2ccccc2)CC1)NC(=O)c1cc2ccsc2s1
54.5

Follow-up entry: CCCCCCOC(=O)[C@H](CCC(=O)NCCC1CCN(Cc2ccccc2)CC1)NC(=O)OC(C)(C)C
24.9

Follow-up entry: CCCCCCOC(=O)[C@H](CCC(=O)NCCC1CCN(Cc2ccccc2)CC1)NC(=O)OCc1ccccc1
4.1

Follow-up entry: CCCCCCOC(=O)[C@H](CCC(=O)NCCC1CCN(Cc2ccccc2)CC1)NC(=O)c1ccccc1
43.9

====

Let's go through some recorded IC50 values for Acetylcholinesterase (Homo sapiens, UniProt P22303) together.
Field note: include the unit after the figure.

Identify the measured IC50 of CCCCCCOC(=O)[C@H](CCC(=O)NCCC1CCN(Cc2ccccc2)CC1)NC(=O)c1cc2ccccc2s1 for Acetylcholinesterase (Homo sapiens, UniProt P22303).
0.27 µM

Follow-up entry: CCCCCCOC(=O)[C@H](CCC(=O)NCCC1CCN(Cc2ccccc2)CC1)NC(=O)c1cc2cccnc2s1
0.44 µM

Follow-up entry: CCCCCCOC(=O)[C@H](CCC(=O)NCCC1CCN(Cc2ccccc2)CC1)NC(=O)c1ccccc1
0.53 µM

Follow-up entry: CCCCCCOC(=O)[C@H](CCC(=O)NCCC1CCN(Cc2ccccc2)CC1)NC(=O)OCc1ccccc1
0.25 µM

====

Let's go through some recorded IC50 values for UniProt P23795 together.
Sequence (P23795 whole entry): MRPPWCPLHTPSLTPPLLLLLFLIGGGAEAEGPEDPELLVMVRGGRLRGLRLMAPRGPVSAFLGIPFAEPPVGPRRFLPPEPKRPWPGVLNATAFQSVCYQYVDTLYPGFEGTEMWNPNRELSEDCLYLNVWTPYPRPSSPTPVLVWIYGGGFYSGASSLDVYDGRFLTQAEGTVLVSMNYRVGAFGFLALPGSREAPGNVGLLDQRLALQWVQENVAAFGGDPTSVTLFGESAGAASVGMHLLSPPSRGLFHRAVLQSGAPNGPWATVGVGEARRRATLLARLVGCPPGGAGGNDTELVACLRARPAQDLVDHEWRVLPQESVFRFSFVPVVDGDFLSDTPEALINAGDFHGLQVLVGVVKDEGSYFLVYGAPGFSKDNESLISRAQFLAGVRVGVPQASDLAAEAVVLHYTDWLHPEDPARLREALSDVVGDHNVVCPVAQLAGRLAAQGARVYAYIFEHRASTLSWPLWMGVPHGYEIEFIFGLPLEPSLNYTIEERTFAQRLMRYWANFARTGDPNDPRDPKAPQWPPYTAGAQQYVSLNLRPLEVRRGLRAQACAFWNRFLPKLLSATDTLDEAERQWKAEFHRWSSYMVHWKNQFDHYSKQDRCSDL
Field note: include the unit after the figure.

Identify the measured IC50 of CCCCCCOC(=O)[C@H](CCC(=O)NCCC1CCN(Cc2ccccc2)CC1)NC(=O)OC(C)(C)C for UniProt P23795.
5000 nM

Follow-up entry: CCCCCCOC(=O)[C@H](CCC(=O)NCCC1CCN(Cc2ccccc2)CC1)NC(=O)c1cc2ccccc2s1
2500 nM

Follow-up entry: CCCCCCOC(=O)[C@H](CCC(=O)NCCC1CCN(Cc2ccccc2)CC1)NC(=O)c1cc(Br)cs1
1200 nM

Follow-up entry: CCCCCCOC(=O)[C@H](CCC(=O)NCCC1CCN(Cc2ccccc2)CC1)NC(=O)c1ccccc1
1900 nM

Follow-up entry: CCCCCCOC(=O)[C@H](CCC(=O)NCCC1CCN(Cc2ccccc2)CC1)NC(=O)c1cc2cccnc2s1
330 nM

Follow-up entry: CCCCCCOC(=O)[C@H](CCC(=O)NCCC1CCN(Cc2ccccc2)CC1)NC(=O)c1cccs1
3500 nM

Follow-up entry: CCCCCCOC(=O)[C@H](CCC(=O)NCCC1CCN(Cc2ccccc2)CC1)NC(=O)c1cc2ccsc2s1
3500 nM

Follow-up entry: CCCCCCOC(=O)[C@H](CCC(=O)NCCC1CCN(Cc2ccccc2)CC1)NC(=O)OCc1ccccc1
1400 nM

Follow-up entry: CCCCCCOC(=O)[C@H](CCC(=O)NCCC1CCN(Cc2ccccc2)CC1)NC(=O)Cc1cc2ccc(Cl)cc2s1
2300 nM
